- method.notes: in vivo
- condition: BALB/c nude, mouse, in vivo, iv, total radioactivity, T/Sp Tumor/Spleen ratio
readout.type: tissue to tissue ratio at 24 h
Lab note: record the figure alone, no unit after it.

So what's the measured tissue to tissue ratio at 24 h for this one? C[C@@H](O)[C@H](NC(=O)[C@@H]1CSSC[C@H](NC(=O)[C@@H](Cc2ccccc2)NC(=O)CNC(=O)COCCOCCNC(=O)[C@H](CCCCNC(=O)c2cccc(NC(=O)N[C@@H]3CN(C4CCCCC4)c4ccccc4N(CC(=O)C(C)(C)C)C3=O)c2)NC(=O)CN2CCN(CC(=O)O)CCN(CC(=O)O)CCN(CC(=O)O)CC2)C(=O)N[C@@H](Cc2ccc(O)cc2)C(=O)N[C@H](Cc2c[nH]c3ccccc23)C(=O)N[C@@H](CCCCN)C(=O)N[C@@H]([C@@H](C)O)C(=O)N1)C(=O)O [Compound I-53, DOTA-K(Z360)-OEG-G-f[CYwKTC]T-OH]
52

Repeat for the following compound: C[C@@H](O)[C@H](NC(=O)[C@@H]1CSSC[C@H](NC(=O)[C@@H](Cc2ccccc2)NC(=O)[C@H](CCCCNC(=O)c2cccc(NC(=O)N[C@@H]3CN(C4CCCCC4)c4ccccc4N(CC(=O)C(C)(C)C)C3=O)c2)NC(=O)COCCOCCNC(=O)CN2CCN(CC(=O)O)CCN(CC(=O)O)CCN(CC(=O)O)CC2)C(=O)N[C@@H](Cc2ccc(O)cc2)C(=O)N[C@H](Cc2c[nH]c3ccccc23)C(=O)N[C@@H](CCCCN)C(=O)N[C@@H]([C@@H](C)O)C(=O)N1)C(=O)O [Compound I-35, DOTA-OEG-K(Z360)-f[CYwKTC]T-OH]
38

Repeat for the following compound: C[C@@H](O)[C@H](NC(=O)[C@@H]1CSSC[C@H](NC(=O)[C@@H](Cc2ccccc2)NC(=O)[C@H](CCCCNC(=O)CC[C@H](NC(=O)CNC(=O)c2cccc(NC(=O)N[C@@H]3CN(C4CCCCC4)c4ccccc4N(CC(=O)C(C)(C)C)C3=O)c2)C(=O)O)NC(=O)COCCOCCNC(=O)CCC(C(=O)O)N2CCN(CC(=O)O)CCN(CC(=O)O)CCN(CC(=O)O)CC2)C(=O)N[C@@H](Cc2ccc(O)cc2)C(=O)N[C@H](Cc2c[nH]c3ccccc23)C(=O)N[C@@H](CCCCN)C(=O)N[C@@H]([C@@H](C)O)C(=O)N1)C(=O)O (stereo partly drawn)
46

Repeat for the following compound: C[C@@H](O)[C@H](NC(=O)[C@@H]1CSSC[C@H](NC(=O)[C@@H](Cc2ccccc2)NC(=O)COCCOCCNC(=O)[C@H](CCCCNC(=O)[C@H](CCC(=O)O)NC(=O)c2cccc(NC(=O)N[C@@H]3CN(C4CCCCC4)c4ccccc4N(CC(=O)C(C)(C)C)C3=O)c2)NC(=O)CN2CCN(CC(=O)O)CCN(CC(=O)O)CCN(CC(=O)O)CC2)C(=O)N[C@@H](Cc2ccc(O)cc2)C(=O)N[C@H](Cc2c[nH]c3ccccc23)C(=O)N[C@@H](CCCCN)C(=O)N[C@@H]([C@@H](C)O)C(=O)N1)C(N)=O [Compound I-3, DOTA-K(-E-Z360)-OEG-f[CYwKTC]T-NH2]
45

Repeat for the following compound: C[C@@H](O)[C@H](NC(=O)[C@@H]1CSSC[C@H](NC(=O)[C@@H](Cc2ccccc2)NC(=O)[C@H](CCCCNC(=O)COCCOCCNC(=O)COCCOCCNC(=O)c2cccc(NC(=O)N[C@@H]3CN(C4CCCCC4)c4ccccc4N(CC(=O)C(C)(C)C)C3=O)c2)NC(=O)CN2CCN(CC(=O)O)CCN(CC(=O)O)CCN(CC(=O)O)CC2)C(=O)N[C@@H](Cc2ccc(O)cc2)C(=O)N[C@H](Cc2c[nH]c3ccccc23)C(=O)N[C@@H](CCCCN)C(=O)N[C@@H]([C@@H](C)O)C(=O)N1)C(=O)O [Compound I-42, DOTA-K(-OEG-OEG-Z360)-f]CYwKTC]T-OH]
62

Repeat for the following compound: C[C@@H](O)[C@H](NC(=O)[C@@H]1CSSC[C@H](NC(=O)[C@@H](Cc2ccccc2)NC(=O)COCCOCCNC(=O)[C@H](CCCCNC(=O)c2cccc(NC(=O)N[C@@H]3CN(C4CCCCC4)c4ccccc4N(CC(=O)C(C)(C)C)C3=O)c2)NC(=O)COCCOCCNC(=O)CN2CCN(CC(=O)O)CCN(CC(=O)O)CCN(CC(=O)O)CC2)C(=O)N[C@@H](Cc2ccc(O)cc2)C(=O)N[C@H](Cc2c[nH]c3ccccc23)C(=O)N[C@@H](CCCCN)C(=O)N[C@@H]([C@@H](C)O)C(=O)N1)C(=O)O [Compound I-52, DOTA-OEG-K(Z360)-OEG-f[CYwKTC]T-OH]
36
